# Tested on: Rattus norvegicus
# assayInfo: Antihyperglycemic activity in fasted hyperglycemic Wistar rat assessed as serum glucose level at 10 mg/kg, po measured 60 mins post dose by oral glucose tolerance test (reference value: 182.55 +/- 6.95 mg/dL)
# Format: functional
The following molecules are listed with their measured Activity values.
Include the unit right after the number.

Past entries and their recorded results:
For this molecule ( COc1ccc(S(=O)(=O)NCCc2ccc(S(=O)(=O)NC(=S)Nc3ccc(Cl)cc3)cc2)cc1 ), measured Activity is 151.74 mg/dL

The value of Activity measured for the molecule CC(C)c1cc(C(C)C)c(S(=O)(=O)NCCc2ccc(S(=O)(=O)NC(=S)Nc3ccccc3)cc2)c(C(C)C)c1 turned out to be 152.76 mg/dL

Just so you know, measured Activity for O=S(=O)(NC(=S)Nc1ccccc1)c1ccc(CCNS(=O)(=O)c2cccc3cccnc23)cc1 came out at 140.08 mg/dL

--- query ---
COc1ccc(S(=O)(=O)NCCc2ccc(S(=O)(=O)NC(=S)Nc3ccccc3)cc2)cc1 has a reported Activity of 154.79 mg/dL
